# System: Macrotyloma uniflorum urease
# procedure-text: in vitro urease inhibitory assay (modified Berthelot reaction, indophenol blue, absorbance at 630 nm)
# Format: biochemical, Macrotyloma uniflorum (Horse gram)
# test-conditions: at 15.00 μg/mL
# Description: All synthesized oxime compounds (2, 6, 7, 8, and 9) were evaluated for the in vitro urease inhibitory activity using a colorimetric method. This method involves the formation of indophenol blue in a basic medium where the modified Berthelot reaction is used. […] The amount of ammonia produced within a given period of time was quantified using a standard calibration method. […]
recorded-endpoint: Percentage inhibition (± SEM) (%)
Dear colleague, please return just the value in %, with no unit written.

Past entries and their recorded results:
Data request, read-out Percentage inhibition (± SEM), for O/N=C\c1cn(Cc2ccccc2)c2ccccc12
58.52

Another compound: NC(N)=S [Thiourea, thiourea, reference compound]
38.41

What do you get for O/N=C/c1cn(Cc2ccccc2)c2ccccc12 ?
72.38

---
Fill in the blank: the reported Percentage inhibition (± SEM) of O/N=C\c1c[nH]c2ccccc12 is ____.
29.28

Entry Cn1cc(/C=N/O)c2ccccc21 please
38.14

Again, but for Cn1cc(/C=N\O)c2ccccc21
29.91
